target: Angiotensin II receptor type 1 (Oryctolagus cuniculus) (UniProt P34976); assay: Antagonism of angiotensin II induced contraction of isolated rabbit aorta
Sequence (P34976 whole entry, looked up): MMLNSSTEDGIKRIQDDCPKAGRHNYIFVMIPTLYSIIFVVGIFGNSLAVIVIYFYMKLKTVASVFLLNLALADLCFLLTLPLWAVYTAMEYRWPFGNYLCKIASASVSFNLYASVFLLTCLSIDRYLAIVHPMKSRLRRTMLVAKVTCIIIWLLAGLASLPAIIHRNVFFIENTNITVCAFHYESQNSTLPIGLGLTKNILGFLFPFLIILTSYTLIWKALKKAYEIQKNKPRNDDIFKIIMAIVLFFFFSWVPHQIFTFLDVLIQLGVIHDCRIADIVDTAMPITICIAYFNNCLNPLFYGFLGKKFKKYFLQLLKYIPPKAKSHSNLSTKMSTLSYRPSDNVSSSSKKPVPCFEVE
quantityKind: Kb (nM)

Here is how some molecules turned out for Kb.
CCCCc1c(Oc2ccc(-c3ccccc3-c3nn[nH]n3)cc2)nc2ccccc2[n+]1[O-] 230
CCCCc1c(Oc2ccc(-c3ccccc3-c3nn[nH]n3)cc2)nc2c(C(=O)O)c(OCC)ccc2[n+]1[O-] 0.026
Cc1nc2ccccc2nc1Oc1ccc(-c2ccccc2-c2nn[nH]n2)cc1 2300
Cc1c(Oc2ccc(-c3ccccc3-c3nn[nH]n3)cc2)nc2ccccc2[n+]1[O-] 480
CCCCc1c(Oc2ccc(-c3ccccc3-c3nn[nH]n3)cc2)nc2c(C(=O)O)c(F)ccc2[n+]1[O-] 0.58

(a) CCCCc1c(Oc2ccc(-c3ccccc3-c3nn[nH]n3)cc2)nc2c(C(=O)O)c(OC)ccc2[n+]1[O-]
(b) CCCCc1nc2ccccc2[n+]([O-])c1Oc1ccc(-c2ccccc2-c2nn[nH]n2)cc1
(c) CCCCc1nc2ccccc2nc1Oc1ccc(-c2ccccc2-c2nn[nH]n2)cc1
(d) CCCCc1c(Oc2ccc(-c3ccccc3-c3nn[nH]n3)cc2)nc2c(C(=O)O)c(OCCC)ccc2[n+]1[O-]
Qu. Sort low-to-high on Kb, please. Put the labels in the requested order and write them down.
Ans. a, d, b, c
(a: 0.13 nM, d: 0.19 nM, b: 0.44 nM, c: 290 nM)

###

target: Angiotensin II receptor (AT-1) type-1 (Rattus norvegicus, UniProt P29089+P25095); assay: Binding affinity for Angiotensin II receptor, type 1 in rat adrenal cortical membranes using [125I]Sar1, Ile8-angiotensin II; assay type: cell membranes
quantityKind: Ki (nM)

CCCCc1c(Oc2ccc(-c3ccccc3-c3nn[nH]n3)cc2)nc2ccccc2[n+]1[O-] 71
CCCCc1nc2ccccc2[n+]([O-])c1Oc1ccc(-c2ccccc2-c2nn[nH]n2)cc1 4.5
CCCCOc1ccc2c(nc(Oc3ccc(-c4ccccc4-c4nn[nH]n4)cc3)c(CCCC)[n+]2[O-])c1C(=O)O 50
CCCCc1nc2ccc(OCC)c(C(=O)O)c2nc1Oc1ccc(-c2ccccc2-c2nn[nH]n2)cc1 44
CCCCc1nc2cccc(C(=O)O)c2nc1Oc1ccc(-c2ccccc2-c2nn[nH]n2)cc1 46
Cc1c(Oc2ccc(-c3ccccc3-c3nn[nH]n3)cc2)nc2ccccc2[n+]1[O-] 550

(1) CCCc1nc2cccc(C(=O)O)c2nc1Oc1ccc(-c2ccccc2-c2nn[nH]n2)cc1
(2) CCCCc1c(Oc2ccc(-c3ccccc3-c3nn[nH]n3)cc2)nc2c(C(=O)O)c(N)ccc2[n+]1[O-]
Qu. # returns the entry with the larger Ki; inputs 1 and 2 Let me know the label of the one you choose.
Ans. 1

(1) CCCCc1c(Oc2ccc(-c3ccccc3-c3nn[nH]n3)cc2)nc2c(C(=O)O)c(OCCC)ccc2[n+]1[O-]
(2) CCCCc1c(Oc2ccc(-c3ccccc3-c3nn[nH]n3)cc2)nc2c(C(=O)O)c(OC(C)C)ccc2[n+]1[O-]
Qu. Kindly compare 1 with 2 and tell me which has the lower Ki figure. Answer = label.
Ans. 2

###

target: Angiotensin II receptor (AT-1) type-1 (Rattus norvegicus, UniProt P29089+P25095); test: Binding affinity for Angiotensin II receptor, type 1 in rat adrenal cortical membranes using [125I]Sar1, Ile8-angiotensin II; format: cell membranes
quantityKind: Ki (nM)

(A) CCCCc1c(Oc2ccc(-c3ccccc3-c3nn[nH]n3)cc2)nc2c(C(=O)O)c(F)ccc2[n+]1[O-]
(B) CCCCc1c(Oc2ccc(-c3ccccc3-c3nn[nH]n3)cc2)nc2c(C(=O)O)c(OCC(F)(F)F)ccc2[n+]1[O-]
(C) CCCCc1nc2ccccc2nc1Oc1ccc(-c2ccccc2-c2nn[nH]n2)cc1
Qu. Put the above compounds in order of rising Ki, beginning with the smallest. Answer format: list of labels, ordered as asked.
Ans. A, B, C
(A: 9 nM, B: 22 nM, C: 137 nM)

(a) CCCCc1nc2ccc(F)c(C(=O)O)c2nc1Oc1ccc(-c2ccccc2-c2nn[nH]n2)cc1
(b) CCCCc1c(Oc2ccc(-c3ccccc3-c3nn[nH]n3)cc2)nc2c(C(=O)O)c(OCC)ccc2[n+]1[O-]
Qu. I need your help: which of the pair a , b has higher Ki? Your choice should be expressed through its label.
Ans. a
(a: 21 nM, b: 1.3 nM)
